# SYSTEM_NAME: UniProtKB Q9UM73
# Sequence (Q9UM73 19-1620 limits assumed): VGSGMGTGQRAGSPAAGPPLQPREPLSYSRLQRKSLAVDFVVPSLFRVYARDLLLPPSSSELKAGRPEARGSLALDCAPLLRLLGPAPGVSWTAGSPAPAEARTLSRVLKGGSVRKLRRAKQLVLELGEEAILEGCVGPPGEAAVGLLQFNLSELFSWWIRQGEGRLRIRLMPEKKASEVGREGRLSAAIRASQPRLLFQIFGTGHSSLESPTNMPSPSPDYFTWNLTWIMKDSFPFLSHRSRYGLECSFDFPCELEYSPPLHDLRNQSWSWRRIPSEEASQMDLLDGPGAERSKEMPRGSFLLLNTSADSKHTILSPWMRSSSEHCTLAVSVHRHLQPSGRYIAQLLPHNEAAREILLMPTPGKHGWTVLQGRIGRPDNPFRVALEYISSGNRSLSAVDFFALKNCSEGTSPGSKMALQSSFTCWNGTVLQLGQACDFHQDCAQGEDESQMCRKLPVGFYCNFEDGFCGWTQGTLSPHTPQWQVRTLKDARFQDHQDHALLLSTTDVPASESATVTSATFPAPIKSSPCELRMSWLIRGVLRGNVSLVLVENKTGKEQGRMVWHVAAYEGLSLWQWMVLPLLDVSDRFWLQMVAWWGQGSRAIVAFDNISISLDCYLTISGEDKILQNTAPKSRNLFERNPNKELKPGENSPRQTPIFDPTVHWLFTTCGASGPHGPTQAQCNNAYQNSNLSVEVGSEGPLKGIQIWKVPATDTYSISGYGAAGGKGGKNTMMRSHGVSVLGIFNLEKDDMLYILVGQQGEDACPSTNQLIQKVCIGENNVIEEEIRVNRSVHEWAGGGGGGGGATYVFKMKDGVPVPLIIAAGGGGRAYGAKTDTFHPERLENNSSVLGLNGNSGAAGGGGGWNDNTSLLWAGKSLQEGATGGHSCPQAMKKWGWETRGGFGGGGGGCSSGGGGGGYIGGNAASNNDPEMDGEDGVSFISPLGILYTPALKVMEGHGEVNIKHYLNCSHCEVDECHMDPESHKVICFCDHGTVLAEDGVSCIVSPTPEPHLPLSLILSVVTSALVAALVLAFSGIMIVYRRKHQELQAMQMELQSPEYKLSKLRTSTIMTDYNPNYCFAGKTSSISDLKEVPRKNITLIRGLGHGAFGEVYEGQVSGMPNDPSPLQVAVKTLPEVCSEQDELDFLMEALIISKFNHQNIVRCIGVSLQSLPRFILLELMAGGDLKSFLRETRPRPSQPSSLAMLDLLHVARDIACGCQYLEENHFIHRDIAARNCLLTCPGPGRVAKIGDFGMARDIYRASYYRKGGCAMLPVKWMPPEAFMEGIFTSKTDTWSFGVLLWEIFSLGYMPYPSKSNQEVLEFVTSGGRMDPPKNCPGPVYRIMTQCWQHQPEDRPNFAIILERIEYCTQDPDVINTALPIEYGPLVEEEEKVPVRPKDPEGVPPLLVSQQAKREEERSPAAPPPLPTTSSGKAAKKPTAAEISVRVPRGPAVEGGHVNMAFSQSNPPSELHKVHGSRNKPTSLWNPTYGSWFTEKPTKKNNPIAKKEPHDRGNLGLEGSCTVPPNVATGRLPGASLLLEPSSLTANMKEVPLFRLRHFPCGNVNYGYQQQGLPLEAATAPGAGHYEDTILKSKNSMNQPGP
# PROCEDURE_SUMMARY: Inhibition of ALK (unknown origin) at 100 nM preincubated for 10 mins followed by addition of substrate and ATP for 25 mins by caliper EZ reader method
# ASSAY_SETUP: time 35.0 min
RESULT_TYPE: inhibition (%)

> print(dat)
                                smiles.text  result.type  unit.symbol  recorded.number
1  CC(C)S(=O)(=O)c1ccccc1Nc1nc(Nc2cccc(NC(=O)CCCC(=O)NO)c2)ncc1Cl   inhibition            %             98.1
2  COc1ccc(Nc2nc(Nc3ccc(NC(=O)CCCCCCC(=O)NO)cc3)ncc2Cl)cc1OC   inhibition            %             17.6
3  Cc1c(Nc2ncc(Cl)c(Nc3ccccc3S(=O)(=O)C(C)C)n2)cccc1C(=O)NCCCCCC(=O)NO   inhibition            %             98.5
4  CC(C)S(=O)(=O)c1ccccc1Nc1nc(Nc2ccc(C(=O)NCCCCCCC(=O)NO)c(Cl)c2)ncc1Cl   inhibition            %              100
5  Cc1ccccc1Nc1nc(Nc2ccc(NC(=O)CCCCCCC(=O)NO)cc2)ncc1Cl   inhibition            %             27.8
6  CC(C)S(=O)(=O)c1ccccc1Nc1nc(Nc2cccc(C(=O)NCCCCC(=O)NO)c2)ncc1Cl   inhibition            %             97.7

a: CC(C)S(=O)(=O)c1ccccc1Nc1nc(Nc2cccc(C(=O)NCCCCCC(=O)NO)c2)ncc1Cl
b: O=C(CCCCCCC(=O)Nc1ccc(Nc2ncc(Cl)c(Nc3ccccc3Cl)n2)cc1)NO
Input: Between a and b , whose recorded inhibition is greater? # answer = label of selected item
Output: a

Hello, the source for this data is ChEMBL document CHEMBL4828709, in case you need it.
